# setup.conditions: in methanol, 313.15 K
property.name: solubility (mole fraction)
// response body must contain only the number

[Q] For CC[C@@H](C(=O)[C@@H](C)[C@@H](O)[C@H](C)CCc1ccc(C)c(O)c1C(=O)[O-])[C@H]1O[C@](CC)([C@H]2CC[C@](O)(CC)[C@H](C)O2)C[C@@H]1C.[Na+] , what is its reported solubility (mole fraction)?
[A] 0.00456

----------
# setup.conditions: in acetone, 293.15 K
property.name: solubility (mole fraction)
Just the number, please.

[Q] For CC[C@@H](C(=O)[C@@H](C)[C@@H](O)[C@H](C)CCc1ccc(C)c(O)c1C(=O)[O-])[C@H]1O[C@](CC)([C@H]2CC[C@](O)(CC)[C@H](C)O2)C[C@@H]1C.[Na+] , what is its reported solubility (mole fraction)?
[A] 0.0121

----------
# setup.conditions: in isopropanol, 313.15 K
property.name: solubility (mole fraction)
Please give only the number in your answer, with no unit.

[Q] Using the record for CC[C@@H](C(=O)[C@@H](C)[C@@H](O)[C@H](C)CCc1ccc(C)c(O)c1C(=O)[O-])[C@H]1O[C@](CC)([C@H]2CC[C@](O)(CC)[C@H](C)O2)C[C@@H]1C.[Na+] , report its solubility (mole fraction).
[A] 0.00191

----------
# setup.conditions: in ethanol, 318.15 K
property.name: solubility (mole fraction)
Write the value as a bare number.

[Q] Would you kindly share the measured solubility (mole fraction) for CC[C@@H](C(=O)[C@@H](C)[C@@H](O)[C@H](C)CCc1ccc(C)c(O)c1C(=O)[O-])[C@H]1O[C@](CC)([C@H]2CC[C@](O)(CC)[C@H](C)O2)C[C@@H]1C.[Na+] ?
[A] 0.00502

----------
# setup.conditions: in isopropanol, 323.15 K
property.name: solubility (mole fraction)
// no unit string in output, number only

[Q] Look at this compound and give its reported solubility (mole fraction). CC[C@@H](C(=O)[C@@H](C)[C@@H](O)[C@H](C)CCc1ccc(C)c(O)c1C(=O)[O-])[C@H]1O[C@](CC)([C@H]2CC[C@](O)(CC)[C@H](C)O2)C[C@@H]1C.[Na+]
[A] 0.00233

----------
# setup.conditions: in isopropanol, 293.15 K
property.name: solubility (mole fraction)
Please give the numeric answer without any surrounding text.

[Q] Entry under review: CC[C@@H](C(=O)[C@@H](C)[C@@H](O)[C@H](C)CCc1ccc(C)c(O)c1C(=O)[O-])[C@H]1O[C@](CC)([C@H]2CC[C@](O)(CC)[C@H](C)O2)C[C@@H]1C.[Na+] . Reported solubility (mole fraction)?
[A] 0.00106

----------
# setup.conditions: in ethyl acetate, 323.15 K
property.name: solubility (mole fraction)
Simply state the number, no unit and no words.

[Q] What value of measured solubility (mole fraction) is listed for CC[C@@H](C(=O)[C@@H](C)[C@@H](O)[C@H](C)CCc1ccc(C)c(O)c1C(=O)[O-])[C@H]1O[C@](CC)([C@H]2CC[C@](O)(CC)[C@H](C)O2)C[C@@H]1C.[Na+] ?
[A] 0.00602

----------
# setup.conditions: in ethanol, 303.15 K
property.name: solubility (mole fraction)
Reply with just the number.

[Q] I would be grateful if you could share the reported solubility (mole fraction) for CC[C@@H](C(=O)[C@@H](C)[C@@H](O)[C@H](C)CCc1ccc(C)c(O)c1C(=O)[O-])[C@H]1O[C@](CC)([C@H]2CC[C@](O)(CC)[C@H](C)O2)C[C@@H]1C.[Na+] .
[A] 0.00364
